System: 485176-168-R4-J1-PDC spheroids with HUVEC/MSC, viability
assay details: Anticancer human tumor 485176-168-R4-J1-PDC patient-derived pancreatic adenocarcinoma cell line growth inhibition [GQUAD]
settings: second compound 0.1 µM; first compound 0.000999 µM; hits give low values
endpoint: viability, T/C (%)
One number for each entry, in %.

CC[C@@]1(O)C(=O)OCc2c1cc1n(c2=O)Cc2cc3c(CN(C)C)c(O)ccc3nc2-1 + Cc1[nH]c2ccc(F)cc2c1-c1nc2c3cccnc3c3ncccc3c2[nH]1 = 85.6
Cc1[nH]c2ccccc2c1CCNCc1ccc(/C=C/C(=O)NO)cc1 + CN(C)c1ccc(Nc2c3ccc(NC(=O)CCN4CCCC4)cc3nc3cc(NC(=O)CCN4CCCC4)ccc23)cc1 = 103
Cn1ncnc1[C@H]1c2n[nH]c(=O)c3cc(F)cc(c23)N[C@@H]1c1ccc(F)cc1 + Cc1[nH]c2ccc(F)cc2c1-c1nc2c3cccnc3c3ncccc3c2[nH]1 = 90.9
Cn1ncnc1[C@H]1c2n[nH]c(=O)c3cc(F)cc(c23)N[C@@H]1c1ccc(F)cc1 + Cc1cnc(CNC(=O)c2c(=O)c3ccc(N4CCCN(C)CC4)nc3n3c2sc2ccccc23)cn1 = 74.4

Below are 2 molecules. Give each one its viability, T/C.
1. CCc1c2c(nc3ccc(O)cc13)-c1cc3c(c(=O)n1C2)COC(=O)[C@]3(O)CC + Cc1[nH]c2ccc(F)cc2c1-c1nc2c3cccnc3c3ncccc3c2[nH]1
2. CCc1c2c(nc3ccc(O)cc13)-c1cc3c(c(=O)n1C2)COC(=O)[C@]3(O)CC + CN(C)c1ccc(Nc2c3ccc(NC(=O)CCN4CCCC4)cc3nc3cc(NC(=O)CCN4CCCC4)ccc23)cc1

1. 78.8
2. 77.8

###

System: 485176-168-R4-J1-PDC spheroids with HUVEC/MSC, viability
assay details: Anticancer human tumor 485176-168-R4-J1-PDC cell line growth inhibition [GQUAD]; active = viability on the fitted dose curve at most 10% of control; inactive = the rest
settings: second compound 3.16 µM; first compound 1 µM
Please state which outcome applies, choosing from 1 (active), -1 (inactive)

C=CC(=O)N1CCN(c2nc(=O)n(-c3c(C)ccnc3C(C)C)c3nc(-c4c(O)cccc4F)c(F)cc23)C(C)C1 (stereo not given) + CN(C)c1ccc(Nc2c3ccc(NC(=O)CCN4CCCC4)cc3nc3cc(NC(=O)CCN4CCCC4)ccc23)cc1 = -1

Called result for O=C(c1cc(Cc2n[nH]c(=O)c3ccccc23)ccc1F)N1CCN(C(=O)C2CC2)CC1 + Cc1[nH]c2ccc(F)cc2c1-c1nc2c3cccnc3c3ncccc3c2[nH]1
-1

Called result for C=CCn1c(=O)c2cnc(Nc3ccc(N4CCN(C)CC4)cc3)nc2n1-c1cccc(C(C)(C)O)n1 + Cc1cnc(CNC(=O)c2c(=O)c3ccc(N4CCCN(C)CC4)nc3n3c2sc2ccccc23)cn1
1

Called result for O=C(c1cc(Cc2n[nH]c(=O)c3ccccc23)ccc1F)N1CCN(C(=O)C2CC2)CC1 + CN(C)c1ccc(Nc2c3ccc(NC(=O)CCN4CCCC4)cc3nc3cc(NC(=O)CCN4CCCC4)ccc23)cc1
-1

Called result for CC1COCCN1c1cc(-c2ccnn2C)c2ccnc(-c3ccn[nH]3)c2n1 (stereo not given) + CN(C)c1ccc(Nc2c3ccc(NC(=O)CCN4CCCC4)cc3nc3cc(NC(=O)CCN4CCCC4)ccc23)cc1
-1

Called result for Cc1cccc(N(C)C(=O)C2C(O)CCN2c2nc(C)cc(C(F)(F)F)c2C#N)c1 (stereo not given) + Cc1cnc(CNC(=O)c2c(=O)c3ccc(N4CCCN(C)CC4)nc3n3c2sc2ccccc23)cn1
-1

###

Tested on: 485176-168-R4-J1-PDC spheroids with HUVEC/MSC, viability
assay details: Anticancer human tumor 485176-168-R4-J1-PDC cell line growth inhibition [GQUAD];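 also: spheroids exposed to compounds for seven days before readout; percent viability relative to DMSO vehicle control wells as 100%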
settings: second compound 10 µM; first compound 3.16 µM; hits give low values
Mark each entry Satisfied if its viability, T/C sits below 30%, and Not satisfied for all others.

Recorded results for 4 compounds are shown here.
CC(C)n1c(=O)n(C)c2cnc3cc(F)c(-c4ccc(OCCCN5CCCCC5)nc4)cc3c21 + CN(C)c1ccc(Nc2c3ccc(NC(=O)CCN4CCCC4)cc3nc3cc(NC(=O)CCN4CCCC4)ccc23)cc1 = Not satisfied
CC(C)(O)C1CCC(Nc2ccc3ncc(-c4cccc(C(F)(F)F)c4)n3n2)CC1 (stereo not given) + Cc1cnc(CNC(=O)c2c(=O)c3ccc(N4CCCN(C)CC4)nc3n3c2sc2ccccc23)cn1 = Satisfied
COc1ccc([C@@H](O)c2cc(-c3ncnc4cc(N5CCOCC5)ccc34)c(F)cc2Cl)nn1 + Cc1cnc(CNC(=O)c2c(=O)c3ccc(N4CCCN(C)CC4)nc3n3c2sc2ccccc23)cn1 = Satisfied
CC1COCCN1c1cc(-c2ccnn2C)c2ccnc(-c3ccn[nH]3)c2n1 (stereo not given) + CN(C)c1ccc(Nc2c3ccc(NC(=O)CCN4CCCC4)cc3nc3cc(NC(=O)CCN4CCCC4)ccc23)cc1 = Satisfied

Now for another entry.
For C#Cc1c(F)ccc2cc(O)cc(-c3ncc4c(N5CC6CCC(C5)N6)nc(OCC56CCCN5CC(F)C6)nc4c3F)c12 (stereo not given) + Cc1[nH]c2ccc(F)cc2c1-c1nc2c3cccnc3c3ncccc3c2[nH]1 , is the recorded viability, T/C below the cut-off of 30%?
Not satisfied

###

Test system: 485176-168-R4-J1-PDC spheroids with HUVEC/MSC, viability
assay details: Anticancer human tumor 485176-168-R4-J1-PDC cell line growth inhibition [GQUAD];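 also: spheroids exposed to compounds for seven days before readout; percent viability relative to DMSO vehicle control wells as 100%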
settings: second compound 0.1 µM; first compound 0.000999 µM; hits give low values
endpoint: viability, T/C (%)
Numbers only, in %.

Recorded results for 2 compounds are shown here.
Cn1ncnc1[C@H]1c2n[nH]c(=O)c3cc(F)cc(c23)N[C@@H]1c1ccc(F)cc1 + CN(C)c1ccc(Nc2c3ccc(NC(=O)CCN4CCCC4)cc3nc3cc(NC(=O)CCN4CCCC4)ccc23)cc1 = 102
CC[C@@]1(O)C(=O)OCc2c1cc1n(c2=O)Cc2cc3c(CN(C)C)c(O)ccc3nc2-1 + Cc1cnc(CNC(=O)c2c(=O)c3ccc(N4CCCN(C)CC4)nc3n3c2sc2ccccc23)cn1 = 75.8

As a next step, examine the compound that follows.
# get_value(readout='viability, T/C', item= Cc1[nH]c2ccccc2c1CCNCc1ccc(/C=C/C(=O)NO)cc1 + Cc1[nH]c2ccc(F)cc2c1-c1nc2c3cccnc3c3ncccc3c2[nH]1 )
105

###

Test system: 485176-168-R4-J1-PDC spheroids with HUVEC/MSC, viability
assay details: Anticancer human tumor 485176-168-R4-J1-PDC cell line growth inhibition [GQUAD];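 also: spheroids exposed to compounds for seven days before readout; percent viability relative to DMSO vehicle control wells as 100%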
settings: second compound 0.1 µM; first compound 0.0316 µM; hits give low values
Mark each entry Y if its viability, T/C sits below 90%, and N for all others.

Recorded results for 3 compounds are shown here.
Cn1ncnc1[C@H]1c2n[nH]c(=O)c3cc(F)cc(c23)N[C@@H]1c1ccc(F)cc1 + CN(C)c1ccc(Nc2c3ccc(NC(=O)CCN4CCCC4)cc3nc3cc(NC(=O)CCN4CCCC4)ccc23)cc1 = N
CCc1c2c(nc3ccc(O)cc13)-c1cc3c(c(=O)n1C2)COC(=O)[C@]3(O)CC + CN(C)c1ccc(Nc2c3ccc(NC(=O)CCN4CCCC4)cc3nc3cc(NC(=O)CCN4CCCC4)ccc23)cc1 = Y
C#Cc1c(F)ccc2cc(O)cc(-c3ncc4c(N5CC6CCC(C5)N6)nc(OCC56CCCN5CC(F)C6)nc4c3F)c12 (stereo not given) + CN(C)c1ccc(Nc2c3ccc(NC(=O)CCN4CCCC4)cc3nc3cc(NC(=O)CCN4CCCC4)ccc23)cc1 = N

For CC1COCCN1c1cc(C2(S(C)(=N)=O)CC2)nc(-c2ccnc3[nH]ccc23)n1 (stereo not given) + Cc1cnc(CNC(=O)c2c(=O)c3ccc(N4CCCN(C)CC4)nc3n3c2sc2ccccc23)cn1 , is the recorded viability, T/C below the cut-off of 90%?
Y

###

Test system: 485176-168-R4-J1-PDC spheroids with HUVEC/MSC, viability
assay details: Anticancer human tumor 485176-168-R4-J1-PDC cell line growth inhibition [GQUAD]; active = viability on the fitted dose curve at most 10% of control; inactive = the rest;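 also: spheroids exposed to compounds for seven days before readout; percent viability relative to DMSO vehicle control wells as 100%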
settings: second compound 0.316 µM; first compound 1 µM
Please state which outcome applies, choosing from active, inactive

Recorded results for 9 molecules are shown here.
CC1COCCN1c1cc(-c2ccnn2C)c2ccnc(-c3ccn[nH]3)c2n1 (stereo not given) + Cc1cnc(CNC(=O)c2c(=O)c3ccc(N4CCCN(C)CC4)nc3n3c2sc2ccccc23)cn1 = active
Nc1ccn(C2OC(CO)C(O)C2(F)F)c(=O)n1 (stereo not given) + CN(C)c1ccc(Nc2c3ccc(NC(=O)CCN4CCCC4)cc3nc3cc(NC(=O)CCN4CCCC4)ccc23)cc1 = inactive
O=C(c1cc(Cc2n[nH]c(=O)c3ccccc23)ccc1F)N1CCN(C(=O)C2CC2)CC1 + Cc1[nH]c2ccc(F)cc2c1-c1nc2c3cccnc3c3ncccc3c2[nH]1 = inactive
COc1cc(C2c3cc4c(cc3C(OC3OC5COC(C)OC5C(O)C3O)C3COC(=O)C23)OCO4)cc(OC)c1O (stereo not given) + Cc1[nH]c2ccc(F)cc2c1-c1nc2c3cccnc3c3ncccc3c2[nH]1 = inactive
COc1cc(C2c3cc4c(cc3C(OC3OC5COC(C)OC5C(O)C3O)C3COC(=O)C23)OCO4)cc(OC)c1O (stereo not given) + CN(C)c1ccc(Nc2c3ccc(NC(=O)CCN4CCCC4)cc3nc3cc(NC(=O)CCN4CCCC4)ccc23)cc1 = inactive
CC(C)(O)C1CCC(Nc2ccc3ncc(-c4cccc(C(F)(F)F)c4)n3n2)CC1 (stereo not given) + Cc1[nH]c2ccc(F)cc2c1-c1nc2c3cccnc3c3ncccc3c2[nH]1 = inactive
CC(=O)O[C@H]1C(=O)[C@@]2(C)[C@H]([C@H](OC(=O)c3ccccc3)[C@]3(O)C[C@H](OC(=O)[C@H](O)[C@@H](NC(=O)c4ccccc4)c4ccccc4)C(C)=C1C3(C)C)[C@]1(OC(C)=O)CO[C@@H]1C[C@@H]2O + CN(C)c1ccc(Nc2c3ccc(NC(=O)CCN4CCCC4)cc3nc3cc(NC(=O)CCN4CCCC4)ccc23)cc1 = inactive
O=C(c1cc(Cc2n[nH]c(=O)c3ccccc23)ccc1F)N1CCN(C(=O)C2CC2)CC1 + CN(C)c1ccc(Nc2c3ccc(NC(=O)CCN4CCCC4)cc3nc3cc(NC(=O)CCN4CCCC4)ccc23)cc1 = inactive
O=C(NO)c1cnc(N2CCN(S(=O)(=O)c3ccc4ccccc4c3)CC2)nc1 + Cc1[nH]c2ccc(F)cc2c1-c1nc2c3cccnc3c3ncccc3c2[nH]1 = inactive

Now for another entry.
Called result for O=C(NO)c1cnc(N2CCN(S(=O)(=O)c3ccc4ccccc4c3)CC2)nc1 + Cc1cnc(CNC(=O)c2c(=O)c3ccc(N4CCCN(C)CC4)nc3n3c2sc2ccccc23)cn1
active

All figures here come from PubChem BioAssay AID2060509.
